pKd overview
Biological target: T1, human CD154 (human, UniProt P29965 113-261, limits assumed)
T1 construct: also called CD154 antigen; CD40L
T1 sequence (looked up): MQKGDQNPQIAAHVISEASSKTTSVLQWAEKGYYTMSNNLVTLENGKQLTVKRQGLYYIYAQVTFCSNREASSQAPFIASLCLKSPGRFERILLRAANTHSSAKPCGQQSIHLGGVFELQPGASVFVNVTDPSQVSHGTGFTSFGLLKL
Experiment: SPR, Biacore 3000, 25 C; antibody immobilized, CD154 antigen flowed over; average n = 6
Keep in mind that pKd stands for -log10 of concentration in molar terms.

// known answers, use as guide
Binder	pKd
variant 25, humanized anti-human CD154 antibody derived from IDEC-131 (antibody, V domains shown) VH: EVQLQESGPGLVKPSETLSLTCTVSGDSITNGFWIWIRKPPGNKLEYMGYISYSGSTYYNPSLKSRISISRDTSKNQFSLKLSSVTAADTGVYYCAYRSYGRTPYYFDYWGQGTTLTVSS VL: DIVMTQSPSFLSASVGDRVTITCKASQNLNHAVAWYQQKPGKSPKLLIYSASNRYTGVPDRFSGSGSGTDFTLTISSLQPEDFADYFCQQYDDYPYTFGGGTKLEIK	10.44
variant 30, humanized anti-human CD154 antibody derived from IDEC-131 (antibody, V domains shown) VH: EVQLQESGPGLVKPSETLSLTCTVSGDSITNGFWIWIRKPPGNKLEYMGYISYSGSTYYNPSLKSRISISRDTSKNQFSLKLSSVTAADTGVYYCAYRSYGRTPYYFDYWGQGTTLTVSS VL: DIVMTQSPSFLSASVGDRVTITCKAGHSLGTAVAWYQQKPGKSPKLLIYSASNRYTGVPDRFSGSGSGTDFTLTISSLQPEDFADYFCQQYDDYPYTFGGGTKLEIK	10.48
variant 22, humanized anti-human CD154 antibody derived from IDEC-131 (antibody, V domains shown) VH: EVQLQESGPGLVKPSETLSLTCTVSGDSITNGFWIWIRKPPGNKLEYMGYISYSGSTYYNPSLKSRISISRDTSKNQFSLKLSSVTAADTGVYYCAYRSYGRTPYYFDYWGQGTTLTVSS VL: DIVMTQSPSFLSASVGDRVTITCKASSNLGNAVAWYQQKPGKSPKLLIYSASNRYTGVPDRFSGSGSGTDFTLTISSLQPEDFADYFCQQYDDYPYTFGGGTKLEIK	10.58

The binder variant 31, humanized anti-human CD154 antibody derived from IDEC-131 (antibody, V domains shown) VH: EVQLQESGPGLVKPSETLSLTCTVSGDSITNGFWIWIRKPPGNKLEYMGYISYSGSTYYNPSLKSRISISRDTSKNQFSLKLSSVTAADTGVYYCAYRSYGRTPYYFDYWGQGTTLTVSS VL: DIVMTQSPSFLSASVGDRVTITCKANQPLGHAVAWYQQKPGKSPKLLIYSASNRYTGVPDRFSGSGSGTDFTLTISSLQPEDFADYFCQQYDDYPYTFGGGTKLEIK showed pKd equal to 10.47

Every entry's value here was drawn from patent US20180193454A1.
